The origin of these recorded values is patent US12037344B2.

# System: THP-1 cells
# assay.remarks: Measurement of IL-1β production, hTRF protocol (second alternative procedure), THP-1 cells
# Type: cell-based, human
# measurement.context: Homo sapiens, THP-1, IL-1β production, human; read-out: NLRP3 hILIB EC50
endpoint.name: EC50 (nM)

Previously resolved entries follow.
compound="CC(C)(Cn1cc2c(N)nc3cc(-c4cc[nH]n4)ccc3c2n1)NC(=O)c1ccc(F)cn1 [Example 293]" observed_value=600
compound="Nc1nc2cc(-c3ccn[nH]3)ccc2c2cn(CCF)nc12 [Example 193]" observed_value=240
compound="COCC(C)n1cc2c(N)nc3cc(-c4cc[nH]n4)ccc3c2n1 (centres unmarked) [Example 336]" observed_value=470

a: CC(O)Cn1cc2c(N)nc3cc(-c4ccn[nH]4)ccc3c2n1 (centres unmarked) [Example 282]
b: Nc1nc2cc(-c3cc[nH]n3)ccc2c2c1cnn2C1CCOCC1 [Example 311]
Query block: Compare reported EC50 values for a and b . Which is lower? Choose, then provide that item's label.
Result block: a
(a: 100 nM, b: 710 nM)

====

# Test system: THP-1 cells
# assay.remarks: Measurement of IL-1β production, hTRF protocol (second alternative procedure), THP-1 cells
# Assay type: cell-based, human
# measurement.context: Homo sapiens, THP-1, IL-1β production, human; read-out: NLRP3 hILIB EC50
pEC50: −log10 of the molar value.
endpoint.name: pEC50

# count of solved cases: 5
molecule=Nc1nc2cc(-c3cc[nH]n3)ccc2c2cn(CCNC(=O)[C@H]3CCCO3)nc12 assayed_system="THP-1 cells" observed_value=5.65
molecule=Nc1nc2cc(-c3cc[nH]n3)ccc2c2cn(CCNC(=O)c3ccccc3)nc12 assayed_system="THP-1 cells" observed_value=5.86
molecule=COc1ccc(C(=O)NCCn2cc3c(N)nc4cc(-c5cc[nH]n5)ccc4c3n2)nc1 assayed_system="THP-1 cells" observed_value=6.18
molecule=Nc1nc2cc(-c3cc[nH]n3)ccc2c2nn(Cc3cccnn3)cc12 assayed_system="THP-1 cells" observed_value=6.96
molecule=Nc1nc2cc(-c3cc[nH]n3)ccc2c2nn(CCOC(F)F)cc12 assayed_system="THP-1 cells" observed_value=6.46

P: Nc1nc2cc(-c3cc[nH]n3)ccc2c2nn([C@@H]3CC[C@H](O)C3)cc12 (relative stereo)
Q: Cc1cccc(OCCCn2cc3c(n2)c(N)nc2cc(-c4cc[nH]n4)ccc23)c1
Query block: // pick min by pEC50: P , Q Please reply using the label of the selected record.
Result block: Q

P: COCCn1cc2c(n1)c(N)nc1cc(-c3ccn[nH]3)ccc12
Q: COc1ccc(CNCCn2cc3c(n2)c(N)nc2cc(-c4cc[nH]n4)ccc23)cc1
Query block: Consider entries P and Q . Which has the numerically lower pEC50? Write down the label attached to your selection.
Result block: Q
(Q: 5.68, P: 6.68)

P: CC(CCO)n1cc2c(N)nc3cc(-c4cc[nH]n4)ccc3c2n1 (single isomer, unassigned)
Q: CN(C)CCn1cc2c(N)nc3cc(-c4ccn[nH]4)ccc3c2n1
R: Nc1nc2cc(-c3cc[nH]n3)ccc2c2nn(CCNC(=O)c3ccccn3)cc12
Query block: Sort by pEC50, descending. Use the labels to give the ranking in the order requested.
Result block: R, P, Q

====

# System: THP-1 cells
# assay.remarks: Measurement of IL-1β production, hTRF protocol (second alternative procedure), THP-1 cells
# Assay type: cell-based, human
# measurement.context: Homo sapiens, THP-1, IL-1β production, human; read-out: NLRP3 hILIB EC50
endpoint.name: EC50 (nM)

P: CC(=O)NC(C)(C)Cn1cc2c(N)nc3cc(-c4ccn[nH]4)ccc3c2n1
Q: Nc1nc2cc(-c3cc[nH]n3)ccc2c2cn(CCNC(=O)c3ccncc3)nc12
Query block: In the pair P and Q , the larger recorded EC50 belongs to which? // output: label of the selected item
Result block: Q
(Q: 950 nM, P: 530 nM)

a: Cc1cnc(C(=O)NCCn2cc3c(n2)c(N)nc2cc(-c4cc[nH]n4)ccc23)cn1
b: Cc1csc(C(=O)NCCn2cc3c(n2)c(N)nc2cc(-c4cc[nH]n4)ccc23)n1
c: Nc1nc2cc(-c3cc[nH]n3)ccc2c2nn(CCN3Cc4ccc(F)cc4C3=O)cc12
Query block: Please list these in order of increasing EC50. Thank you! Rank them, then answer with their labels in that order.
Result block: b, a, c

====

# assayed.system: TLR8 (Homo sapiens, UniProt Q9NR97)
# Construct: human HEK-Blue cells co-expressing a TLR7 or TLR8 gene
# Sequence (Q9NR97 27-1041): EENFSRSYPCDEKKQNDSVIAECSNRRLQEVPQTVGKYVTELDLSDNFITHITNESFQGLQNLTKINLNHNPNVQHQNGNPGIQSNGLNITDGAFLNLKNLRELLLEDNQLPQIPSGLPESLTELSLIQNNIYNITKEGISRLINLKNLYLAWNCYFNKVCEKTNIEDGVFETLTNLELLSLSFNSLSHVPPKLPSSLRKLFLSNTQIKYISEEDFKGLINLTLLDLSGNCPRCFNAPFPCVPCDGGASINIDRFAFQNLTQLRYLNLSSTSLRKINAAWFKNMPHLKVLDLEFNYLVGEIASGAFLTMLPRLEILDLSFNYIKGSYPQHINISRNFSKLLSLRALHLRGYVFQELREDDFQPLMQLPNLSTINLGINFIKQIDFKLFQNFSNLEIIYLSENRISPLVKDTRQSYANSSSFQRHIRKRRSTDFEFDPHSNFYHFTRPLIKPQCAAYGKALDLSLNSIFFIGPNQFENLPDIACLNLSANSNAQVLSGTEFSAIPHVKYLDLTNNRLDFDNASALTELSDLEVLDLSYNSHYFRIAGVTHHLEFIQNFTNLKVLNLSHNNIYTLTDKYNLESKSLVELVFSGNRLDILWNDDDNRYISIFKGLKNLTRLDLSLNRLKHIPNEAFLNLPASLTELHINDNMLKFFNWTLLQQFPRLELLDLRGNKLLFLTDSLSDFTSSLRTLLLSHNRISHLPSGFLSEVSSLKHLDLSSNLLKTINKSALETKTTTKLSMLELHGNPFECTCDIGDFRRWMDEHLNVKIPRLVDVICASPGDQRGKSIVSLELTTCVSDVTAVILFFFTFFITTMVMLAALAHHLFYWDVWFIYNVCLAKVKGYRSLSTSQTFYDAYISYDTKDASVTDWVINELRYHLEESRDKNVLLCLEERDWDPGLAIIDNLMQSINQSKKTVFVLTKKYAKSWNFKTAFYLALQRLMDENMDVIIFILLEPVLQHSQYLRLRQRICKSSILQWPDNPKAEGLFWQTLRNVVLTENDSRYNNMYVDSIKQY
# assay.remarks: In vitro human TLR8 binding reporter assay (HEK-Blue, NF-kB/AP1-inducible SEAP)
# Type: cell-based
# measurement.context: activity range class, read-out: TLR8 Agonist EC50
endpoint.name: EC50

compound=Nc1nc2cc(-c3cc[nH]n3)ccc2c2cn(CCNC(=O)c3ccc(Cl)cn3)nc12 endpoint_name=EC50 observed_value="20 to 100 µM"
compound=Nc1nc2cc(-c3cc[nH]n3)ccc2c2cn(CCNC(=O)c3csc(Cl)n3)nc12 endpoint_name=EC50 observed_value="20 to 100 µM"
compound=CS(=O)(=O)CCn1cc2c(n1)c(N)nc1cc(-c3cc[nH]n3)ccc12 endpoint_name=EC50 observed_value="> 100 µM"

--- query ---
Query block: What value of EC50 has been reported for the following compound? CC(C)(C)OCC(O)Cn1cc2c(N)nc3cc(-c4cc[nH]n4)ccc3c2n1 (stereo not shown)
Result block: > 100 µM

====

Overview of recorded EC50 for various compounds
# assayed.system: TLR7 (Homo sapiens, UniProt Q9NYK1)
# Construct: human HEK-Blue cells co-expressing a TLR7 or TLR8 gene
# Sequence (Q9NYK1 27-1049): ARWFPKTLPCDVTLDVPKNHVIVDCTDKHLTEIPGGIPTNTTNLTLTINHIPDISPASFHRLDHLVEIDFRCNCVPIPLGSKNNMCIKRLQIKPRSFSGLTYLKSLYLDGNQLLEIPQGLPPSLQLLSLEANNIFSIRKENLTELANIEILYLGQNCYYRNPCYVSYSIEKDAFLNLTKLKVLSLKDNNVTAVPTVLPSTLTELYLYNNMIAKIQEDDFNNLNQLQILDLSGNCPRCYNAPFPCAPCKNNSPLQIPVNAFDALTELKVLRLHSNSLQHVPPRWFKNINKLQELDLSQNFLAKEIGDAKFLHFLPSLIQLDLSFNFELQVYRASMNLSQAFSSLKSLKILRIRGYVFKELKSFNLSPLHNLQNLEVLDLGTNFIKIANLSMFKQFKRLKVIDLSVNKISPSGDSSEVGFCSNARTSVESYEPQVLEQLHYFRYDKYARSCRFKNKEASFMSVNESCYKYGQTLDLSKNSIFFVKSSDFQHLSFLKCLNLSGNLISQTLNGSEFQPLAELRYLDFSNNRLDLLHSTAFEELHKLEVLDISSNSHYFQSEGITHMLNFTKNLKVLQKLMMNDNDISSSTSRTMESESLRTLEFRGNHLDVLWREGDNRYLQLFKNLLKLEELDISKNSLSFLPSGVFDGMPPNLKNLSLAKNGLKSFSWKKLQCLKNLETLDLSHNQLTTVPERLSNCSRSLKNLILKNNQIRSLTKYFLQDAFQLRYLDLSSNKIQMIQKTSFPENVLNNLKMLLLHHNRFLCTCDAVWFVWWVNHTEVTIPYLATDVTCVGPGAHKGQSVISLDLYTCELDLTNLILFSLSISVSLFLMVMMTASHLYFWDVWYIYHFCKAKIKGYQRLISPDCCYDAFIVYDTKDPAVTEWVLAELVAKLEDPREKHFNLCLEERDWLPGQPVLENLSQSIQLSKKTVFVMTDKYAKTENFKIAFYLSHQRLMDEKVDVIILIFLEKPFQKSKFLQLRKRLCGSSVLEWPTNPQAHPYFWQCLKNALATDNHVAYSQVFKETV
# assay.remarks: In vitro human TLR7 binding reporter assay (HEK-Blue, NF-kB/AP1-inducible SEAP)
# Assay type: cell-based
# measurement.context: activity range class, read-out: TLR7 Agonist EC50

Some solved entries appear below for comparison.
compound="Nc1nc2cc(-c3cc[nH]n3)ccc2c2cn(CCNC(=O)c3cccc(C(F)(F)F)n3)nc12 [Example 90]" observed_value="20 to 100 µM"
compound="Cc1nc(C(=O)NCCn2cc3c(n2)c(N)nc2cc(-n4cccn4)ccc23)co1 [Example 183]" observed_value="> 100 µM"
compound="Nc1nc2cc(-c3ccn[nH]3)ccc2c2sc(CCCO)nc12 [Example 142]" observed_value="> 100 µM"
compound="CCn1cc2c(n1)c(N)nc1cc(-c3ccn[nH]3)ccc12 [Example 188]" observed_value="> 100 µM"
compound="COc1ccc(C(=O)NCCn2cc3c(n2)c(N)nc2cc(-c4cc[nH]n4)ccc23)nn1 [Example 51]" observed_value="> 100 µM"
compound="Nc1nc2cc(-c3cc[nH]n3)ccc2c2nn(CCCO)cc12 [Example 215]" observed_value="> 100 µM"
compound="Nc1nc2cc(-c3cc[nH]n3)ccc2c2nn(CC3(CO)CC3)cc12 [Example 353]" observed_value="> 100 µM"
compound="Nc1nc2cc(-n3cccn3)ccc2c2cn(C[C@H]3CCC(=O)N3)nc12 [Example 16]" observed_value="20 to 100 µM"
compound="Nc1nc2cc(-c3cc[nH]n3)ccc2c2cn(CCNC(=O)c3ccccc3)nc12 [Example 36]" observed_value="20 to 100 µM"
compound="CCNC(=O)Cn1cc2c(n1)c(N)nc1cc(-n3cccn3)ccc12 [Example 19]" observed_value="20 to 100 µM"

Query block: Look up EC50 for this compound: CN(C)Cc1nc2c(N)nc3cc(-c4ccn[nH]4)ccc3c2s1 [Example 143]
Result block: > 100 µM

Query block: Next compound up: CN(CCn1cc2c(n1)c(N)nc1cc(-c3cc[nH]n3)ccc12)C(=O)c1ccccc1 [Example 120]
Result block: > 100 µM
